test system: LOX IMVI melanoma; experiment: NCI tumour cell line growth inhibition, 48 h; in the data active = GI50 below about 0.43 µM; inactive = the rest
Your reply should match one of these outcome classes. yes (1) for active, no (0) for inactive

compound	class-label
O=C(/C=C/c1ccccc1)c1cccc2ccccc12	no (0)

Prompt line: Could you kindly confirm the outcome this assay logged for C=C1C(=O)O[C@H]2[C@H]1CC/C(COC(=O)c1cccnc1N)=C\CC[C@@]1(C)O[C@@H]21 ?
Response line: no (0)

Prompt line: Could you kindly confirm the outcome this assay logged for CCCCC(=O)N(c1ccc(Nc2c3ccccc3nc3cc([N+](=O)[O-])ccc23)cc1)S(C)(=O)=O ?
Response line: no (0)

----------
tested on: NCI-H522 lung; assay: NCI tumour cell line growth inhibition, 48 h; in the data active = GI50 below about 0.43 µM; inactive = the rest
Your reply should match one of these outcome classes. t = active, f = inactive

Field: example entries. Status: answers known.
> print(dat)
                                   compound  class.label
1  COc1ccc(Oc2nc3cc(N)cc(N)c3nc2-c2ccccc2)cc1            f
2     O=C(O)CCC(c1ccccc1)(c1ccccc1)c1ccccc1            f
3  COc1cccc2c1C(=O)c1c(O)c3c(c(O)c1C2=O)C[C@@](O)(C(=O)CO)CC3OC1CC(N)C(OC2CCCCO2)C(C)O1 (stereo partly specified)            t

Prompt line: Could you kindly confirm the outcome this assay logged for Nc1ccccc1C#C/C=C\C#Cc1ccccc1C#CCO ?
Response line: f

Prompt line: Could you kindly confirm the outcome this assay logged for Cc1ccc(/C=N/NC(=O)c2ccccc2Oc2ccccc2)o1 ?
Response line: f

Prompt line: Could you kindly confirm the outcome this assay logged for COc1cc(-c2nn(-c3ccc(NC(=O)Nc4cc(C(F)(F)F)cc(C(F)(F)F)c4)cc3)cc2-c2ccncc2)ccc1Cl ?
Response line: f
